Hello, the source for this data is ChEMBL document CHEMBL5512619, in case you need it.

Measured pIC50 of individual entries
system: SK-MEL-2; assay: Antiproliferative activity against human SK-MEL-2 cells assessed as inhibition of cell growth after 72 hrs by MTT assay; format: functional, cell-based; conditions: SK-MEL-2, 72 h
A value of pIC50 is the negative decimal logarithm of a concentration given in moles per litre.

Below: 2 molecules and their reported pIC50.
{"columns": ["INPUT_SMILES", "TARGET_UNDER_TEST", "pIC50"],
 "data": [
  ["CC(=O)OC[C@H]1O[C@@H](NC(=S)N/N=C(\\C)c2cc3ccccc3oc2=O)[C@H](OC(C)=O)[C@@H](OC(C)=O)[C@H]1OC(C)=O", "SK-MEL-2", 5.89],
  ["CC(=O)OC[C@H]1O[C@@H](NC(=S)N/N=C(\\C)c2cc3ccc(C)cc3oc2=O)[C@H](OC(C)=O)[C@@H](OC(C)=O)[C@H]1OC(C)=O", "SK-MEL-2", 5.89]
]}

Now let's try a different one.
Record "CC(=O)OC[C@H]1O[C@@H](NC(=S)N/N=C(\C)c2c(C)c3ccc(O)cc3oc2=O)[C@H](OC(C)=O)[C@@H](OC(C)=O)[C@H]1OC(C)=O" , field pIC50: 5.89

* * *

assay: Inhibition of DNA topoisomerase II (unknown origin)
QUANTITY_NAME: IC50
Could you kindly put the unit after your number?

Below: 2 compounds and their reported IC50.
{"columns": ["COMPOUND", "RESULT"],
 "data": [
  ["COC(=O)C(Cc1ccc(O)cc1)NC(=O)c1cc2ccccc2oc1=O (stereo not drawn)", "8.6 µM"],
  ["COC(=O)C(CCSC)NC(=O)CCNC(=O)c1cc2ccccc2oc1=O (stereo not drawn)", "4.1 µM"]
]}

Now let's try a different one.
Record COc1cccc2c1C(=O)c1c(O)c3c(c(O)c1C2=O)C[C@@](O)(C(=O)CO)C[C@@H]3O[C@H]1C[C@H](N)[C@H](O)[C@H](C)O1 [DOXORUBICIN] , field IC50: 9.65 µM

* * *

system: MCF7; assay: Antiproliferative activity against human MCF7 cells measured after 72 hrs by MTT assay; type: functional, cell-based; details: MCF7, 72 h
Measured IC50 of individual entries
Lab book: enter the figure in µM, no units written.

{"columns": ["COMPOUND", "QUANTITATIVE_RESULT"],
 "data": [
  ["O=c1ccc2cc(O)c(O)cc2o1 [ESCULETIN]", 193]
]}

Record O=c1ccc2ccc(O)c(O)c2o1 [DAPHNETIN] , field IC50: 73

* * *

test: Cytotoxicity against African green monkey Vero cells incubated for 2 days by Neutral Red staining based assay; assay type: toxicity, cell-based, Chlorocebus sabaeus
QUANTITY_NAME: IC50 at 2 days (µM)
Lab book: enter the figure in µM, no units written.

Record C=CC(C)(C)c1cc2c(O)c3c(c(C(C)(C)C=C)c2oc1=O)OC(C)(C)C=C3 [CLAUSARIN] , field IC50 at 2 days: 78.2

* * *

target: Carbonic anhydrase 12 (Homo sapiens)
Sequence (O43570 whole entry): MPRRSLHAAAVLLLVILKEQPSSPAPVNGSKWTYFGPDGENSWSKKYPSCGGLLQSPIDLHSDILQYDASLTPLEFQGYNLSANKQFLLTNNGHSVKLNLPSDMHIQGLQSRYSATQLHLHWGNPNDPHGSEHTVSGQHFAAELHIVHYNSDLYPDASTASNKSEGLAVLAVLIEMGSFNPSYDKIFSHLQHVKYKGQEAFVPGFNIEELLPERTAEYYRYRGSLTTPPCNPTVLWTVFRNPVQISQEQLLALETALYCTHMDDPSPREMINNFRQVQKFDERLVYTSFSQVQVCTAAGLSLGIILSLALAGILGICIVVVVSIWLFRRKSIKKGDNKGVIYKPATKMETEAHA
Measured pKi of individual entries
A value of pKi is the negative decimal logarithm of a concentration given in moles per litre.

{"columns": ["INPUT_SMILES", "TARGET_UNDER_TEST", "pKi"],
 "data": [
  ["O=C(Nc1ccc2c(c1)C=CS(=O)(=O)O2)c1ccc(F)c(S(=O)(=O)N2CCCCC2)c1", "Carbonic anhydrase 12 (Homo sapiens)", 7.51]
]}

Now let's try a different one.
Record "Cc1ccc(C(=O)Nc2ccc3c(c2)C=CS(=O)(=O)O3)cc1S(=O)(=O)N1C[C@@H](C)O[C@@H](C)C1" , field pKi: 7.51

* * *

These records show IC50 for Epidermal growth factor receptor (Homo sapiens, UniProt P00533).
Could you kindly put the unit after your number?

{"columns": ["COMPOUND", "RESULT"],
 "data": [
  ["CCCCCOc1ccc2oc(=O)cc(/C=N/N=c3\\scc(-c4ccccc4)n3[C@@H]3O[C@H](COC(C)=O)[C@@H](OC(C)=O)[C@H](OC(C)=O)[C@H]3OC(C)=O)c2c1", "150 nM"]
]}

Now let's try a different one.
Reading of IC50 for CC(=O)OC[C@H]1O[C@@H](N(C(C)=O)C2=NN(C(C)=O)C(c3cc(=O)oc4cc(OCCC(C)C)ccc34)S2)[C@H](OC(C)=O)[C@@H](OC(C)=O)[C@@H]1OC(C)=O (some centres not stated) with Epidermal growth factor receptor (Homo sapiens, UniProt P00533): 220 nM

* * *

target: Vascular endothelial growth factor receptor 2 (Homo sapiens, UniProt P35968); assay: Inhibition of VEGFR2 (unknown origin)
Sequence (P35968 whole entry): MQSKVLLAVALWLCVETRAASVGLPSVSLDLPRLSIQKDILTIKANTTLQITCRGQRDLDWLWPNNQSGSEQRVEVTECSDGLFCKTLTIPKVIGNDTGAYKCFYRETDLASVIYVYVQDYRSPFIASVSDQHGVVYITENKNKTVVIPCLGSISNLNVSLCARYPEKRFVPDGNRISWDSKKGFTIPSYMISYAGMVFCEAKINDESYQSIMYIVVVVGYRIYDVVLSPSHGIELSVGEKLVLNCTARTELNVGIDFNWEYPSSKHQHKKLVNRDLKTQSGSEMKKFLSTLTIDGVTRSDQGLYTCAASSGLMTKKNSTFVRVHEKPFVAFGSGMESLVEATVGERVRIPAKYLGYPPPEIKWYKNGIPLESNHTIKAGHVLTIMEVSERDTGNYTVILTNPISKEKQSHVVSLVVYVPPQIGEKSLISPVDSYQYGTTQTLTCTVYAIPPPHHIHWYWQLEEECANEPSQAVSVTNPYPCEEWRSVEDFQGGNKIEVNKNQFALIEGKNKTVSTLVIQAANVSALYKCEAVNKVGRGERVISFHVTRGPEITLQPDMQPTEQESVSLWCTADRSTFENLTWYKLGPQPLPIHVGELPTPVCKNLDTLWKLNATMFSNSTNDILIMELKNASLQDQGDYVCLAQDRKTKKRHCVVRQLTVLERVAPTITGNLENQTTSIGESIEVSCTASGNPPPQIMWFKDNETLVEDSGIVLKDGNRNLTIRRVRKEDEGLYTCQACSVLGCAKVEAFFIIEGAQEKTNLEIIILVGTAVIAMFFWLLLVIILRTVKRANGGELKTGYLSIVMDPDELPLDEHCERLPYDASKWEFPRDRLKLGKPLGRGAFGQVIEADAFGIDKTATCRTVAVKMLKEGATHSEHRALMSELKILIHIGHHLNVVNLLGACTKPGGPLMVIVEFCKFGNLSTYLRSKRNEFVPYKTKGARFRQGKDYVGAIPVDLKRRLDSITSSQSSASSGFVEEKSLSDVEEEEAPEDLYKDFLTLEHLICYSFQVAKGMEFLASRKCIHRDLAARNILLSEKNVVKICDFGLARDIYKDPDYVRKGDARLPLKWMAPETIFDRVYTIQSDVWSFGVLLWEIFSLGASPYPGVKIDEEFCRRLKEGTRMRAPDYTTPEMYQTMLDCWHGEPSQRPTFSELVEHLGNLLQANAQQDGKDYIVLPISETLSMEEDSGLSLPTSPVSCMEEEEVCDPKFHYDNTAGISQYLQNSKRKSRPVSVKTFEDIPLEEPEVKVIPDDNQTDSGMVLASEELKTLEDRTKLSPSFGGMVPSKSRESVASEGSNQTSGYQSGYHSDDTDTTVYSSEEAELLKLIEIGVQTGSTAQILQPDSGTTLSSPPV
QUANTITY_NAME: IC50 (µM)
Lab book: enter the figure in µM, no units written.

{"columns": ["COMPOUND", "TARGET_UNDER_TEST", "IC50 / µM"],
 "data": [
  ["COC(=O)C(Cc1ccc(O)cc1)NC(=O)c1cc2ccccc2oc1=O (configuration not stated)", "Vascular endothelial growth factor receptor 2 (Homo sapiens, UniProt P35968)", 34.2]
]}

Now let's try a different one.
Record COC(=O)C(CCSC)NC(=O)CCNC(=O)c1cc2ccccc2oc1=O (configuration not stated) , field IC50: 23.6

* * *

target: Carbonic anhydrase 1 (Homo sapiens, UniProt P00915); assay: Binding affinity to human CA1 assessed as inhibition constant incubated for 6 hrs by phenol red dye based stopped flow CO2 hydration assay
Sequence (P00915 whole entry): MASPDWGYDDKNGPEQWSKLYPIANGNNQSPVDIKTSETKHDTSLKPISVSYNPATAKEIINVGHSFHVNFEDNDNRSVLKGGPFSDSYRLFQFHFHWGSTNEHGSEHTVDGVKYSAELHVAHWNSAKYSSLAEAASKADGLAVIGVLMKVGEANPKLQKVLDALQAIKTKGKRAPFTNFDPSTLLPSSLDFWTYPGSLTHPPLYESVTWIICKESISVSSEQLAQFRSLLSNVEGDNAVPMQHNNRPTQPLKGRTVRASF
QUANTITY_NAME: Ki

{"columns": ["INPUT_SMILES", "RESULT"],
 "data": [
  ["Cc1cc(=O)oc2cc(OCc3cn(CCCCCCCCCCOc4ccc5ccc(=O)oc5c4)nn3)ccc12", "> 10 µM"]
]}

Record "Cc1cc(=O)oc2cc(OCc3cn(CCCCCCCCCCCCOc4ccc5ccc(=O)oc5c4)nn3)ccc12" , field Ki: > 10 µM

* * *

tested on: MCF7; assay: Antiproliferative activity against human MCF7 cells measured after 72 hrs by SRB method; assay type: functional, cell-based; conditions: MCF7, 72 h
Measured IC50 of individual entries
Could you kindly put the unit after your number?

{"columns": ["INPUT_SMILES", "IC50"],
 "data": [
  ["COc1cc(C)c2oc(=O)c(C)c3c2c1[C@@H](C)CO3", "0.74 µM"]
]}

Now let's try a different one.
Record "Cc1c2c3c(ccc(C)c3oc1=O)[C@](C)(O)CO2" , field IC50: 3.95 µM

* * *

test: Cytotoxicity against human BEAS-2B cells assessed as inhibition of cell growth by MTT assay; format: toxicity, cell-based
QUANTITY_NAME: IC50 (µg/mL)
Lab book: enter the figure in µg/mL, no units written.

Record "C/C(=N\Cc1ccc(O)cc1)c1c(O)c2ccccc2oc1=O" , field IC50: 4.08

* * *

Measured IC50 of individual entries
system: MDA-MB-231; assay: Antiproliferative activity against human MDA-MB-231 cells incubated 24 hrs by MTT assay; assay type: functional, cell-based; conditions: MDA-MB-231, 24 h

Below: 2 molecules and their reported IC50.
{"columns": ["INPUT_SMILES", "RESULT"],
 "data": [
  ["O=c1oc2ccccc2cc1-c1cc(-c2ccccc2Br)nc(Cc2ccc(F)cc2)n1", "< 10 µM"],
  ["COc1ccc(-c2cc(-c3cc4ccccc4oc3=O)nc(Cc3ccc(F)cc3)n2)cc1", "< 10 µM"]
]}

Now let's try a different one.
Record "O=c1oc2ccccc2cc1-c1cc(-c2cccc(Br)c2)nc(Cc2ccc(F)cc2)n1" , field IC50: < 10 µM

* * *

tested on: MDA-MB-231; experiment: Antiproliferative activity against human MDA-MB-231 cells incubated 24 hrs by MTT assay; type: functional, cell-based; settings: MDA-MB-231, 24 h
Measured IC50 of individual entries

Below: 8 compounds and their reported IC50.
{"columns": ["INPUT_SMILES", "QUANTITY_NAME", "RESULT"],
 "data": [
  ["COc1ccccc1-c1cc(-c2cc3ccccc3oc2=O)nc(Cc2ccc(F)cc2)n1", "IC50", "< 10 µM"],
  ["O=c1oc2ccccc2cc1-c1cc(-c2ccccc2Cl)nc(Cc2ccc(F)cc2)n1", "IC50", "< 10 µM"],
  ["Cc1ccccc1-c1cc(-c2cc3ccccc3oc2=O)nc(Cc2ccc(F)cc2)n1", "IC50", "< 10 µM"],
  ["O=c1oc2ccccc2cc1-c1cc(-c2ccc(Cl)cc2)nc(Cc2ccc(F)cc2)n1", "IC50", "< 10 µM"],
  ["O=c1oc2ccccc2cc1-c1cc(-c2ccc(Br)cc2)nc(Cc2ccc(F)cc2)n1", "IC50", "< 10 µM"],
  ["Cc1ccc(-c2cc(-c3cc4ccccc4oc3=O)nc(Cc3ccc(F)cc3)n2)cc1", "IC50", "< 10 µM"],
  ["COc1cccc(-c2cc(-c3cc4ccccc4oc3=O)nc(Cc3ccc(F)cc3)n2)c1", "IC50", "< 10 µM"],
  ["O=c1oc2ccccc2cc1-c1cc(-c2cccc(Cl)c2)nc(Cc2ccc(F)cc2)n1", "IC50", "< 10 µM"]
]}

Now let's try a different one.
Reading of IC50 for "Cc1cccc(-c2cc(-c3cc4ccccc4oc3=O)nc(Cc3ccc(F)cc3)n2)c1" with MDA-MB-231: < 10 µM
